# Test system: Escherichia coli TOP10;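 also: peptides expressed intracellularly from a pBAD plasmid library in pooled LB shake-flask culture, induced with 0.3% L-arabinose, DNA abundance read by NGS, three biological replicates, DESeq2 with apeglm shrinkage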
# experimental-protocol: shrunken log2 fold change of peptide-encoding DNA abundance (4.5 h post-induction vs induction); higher = less antimicrobial activity (less host growth inhibition)
# study-conditions: time post-induction: 4.5 h; library: site-saturation at positions 5, 18, 19, 20
If the reported shrunken log2 fold change equals or exceeds 0.01, assign condition met. If not, assign condition not met.

RRIRCRPPRLPRPRPRPVEVPRP; condition not met
RRIRQRPPRLPRPRPRPVECPRP; condition met
RRIRARPPRLPRPRPRPTCGPRP; condition met
RRIRYRPPRLPRPRPRPFQFPRP; condition met
RRIRNRPPRLPRPRPRPCRYPRP; condition not met
RRIRHRPPRLPRPRPRPHADPRP; condition not met
RRIRMRPPRLPRPRPRPRQLPRP; condition met
RRIRHRPPRLPRPRPRPECTPRP; condition met
RRIRFRPPRLPRPRPRPIRCPRP; condition met
RRIRPRPPRLPRPRPRPRRVPRP; condition met
RRIRPRPPRLPRPRPRPHLFPRP; condition not met
RRIRFRPPRLPRPRPRPFGAPRP; condition met
RRIRRRPPRLPRPRPRPYWSPRP; condition not met
RRIRVRPPRLPRPRPRPRCTPRP; condition met
RRIRLRPPRLPRPRPRPRNSPRP; condition not met
RRIRYRPPRLPRPRPRPNSVPRP; condition not met
RRIRRRPPRLPRPRPRPYWYPRP; condition not met
RRIRYRPPRLPRPRPRPTTMPRP; condition not met
RRIRPRPPRLPRPRPRPHVLPRP; condition not met
RRIRMRPPRLPRPRPRPLAWPRP; condition met
RRIRNRPPRLPRPRPRPMNWPRP; condition met
RRIRRRPPRLPRPRPRPTAMPRP; condition met
RRIRVRPPRLPRPRPRPLCPPRP; condition not met
RRIRSRPPRLPRPRPRPIHDPRP; condition not met
RRIRCRPPRLPRPRPRPKCPPRP; condition met
RRIRQRPPRLPRPRPRPKFTPRP; condition met
RRIRMRPPRLPRPRPRPIQQPRP; condition not met
RRIRLRPPRLPRPRPRPDMEPRP; condition met
RRIRTRPPRLPRPRPRPTYQPRP; condition not met
RRIRSRPPRLPRPRPRPSHAPRP; condition not met
RRIRARPPRLPRPRPRPEFNPRP; condition met
RRIRYRPPRLPRPRPRPWAMPRP; condition not met
RRIRIRPPRLPRPRPRPQAVPRP; condition not met
RRIRIRPPRLPRPRPRPVWYPRP; condition not met
RRIRYRPPRLPRPRPRPHPRPRP; condition not met
RRIRVRPPRLPRPRPRPQEMPRP; condition met
RRIRPRPPRLPRPRPRPKPKPRP; condition met
RRIRGRPPRLPRPRPRPVDYPRP; condition not met
RRIRDRPPRLPRPRPRPQYVPRP; condition not met
RRIRFRPPRLPRPRPRPSFIPRP; condition not met
RRIRWRPPRLPRPRPRPVGDPRP; condition met
RRIRRRPPRLPRPRPRPESAPRP; condition met
RRIRTRPPRLPRPRPRPYKTPRP; condition not met
RRIRKRPPRLPRPRPRPKAKPRP; condition met
RRIRHRPPRLPRPRPRPDYNPRP; condition not met
RRIRLRPPRLPRPRPRPYTNPRP; condition not met
RRIRHRPPRLPRPRPRPLHFPRP; condition not met

FYI, the data here is from the supplement of paper PMC9112550.
